# assay: Plasma compound levels after oral dosing (LC-MS/MS)
# measurement parameters: C57BL/6, mouse, 100 mg/kg
measure name: Cmax (µM)

INSERT INTO assay_data (molecule, measure_name, numeric_value) VALUES
  ('CC(=O)N1CCC(C(C)N(C(=O)COc2cccc3sc4nc(C)cn4c23)c2ccc(F)cc2)CC1 (centres unmarked) [compound 18]', 'Cmax', 14.8),
  ('CC[C@H]1[C@@H](O)[C@@H]2[C@H](C[C@H](O)[C@]3(C)[C@@H]([C@H](C)C[C@H](C)C(=O)O)CC[C@@H]23)[C@@]2(C)CC[C@@H](O)C[C@@H]12 [INT-777, 6α-ethyl-23(S)-methylcholic acid, reference compound]', 'Cmax', 136);

Measured values drawn from paper PMC4551797 for this set.
